Assay: xn = mol fraction of the nth substance listed
Conditions: 333.15 K; 101 kPa; x1 = 0.02551
Quick list: electrical conductivity per entry.
Observable: electrical conductivity (S/m)

[
  {
    "Compound": "O=C([O-])C(F)(F)F.O=S(=O)(O)n1cc[n+](S(=O)(=O)O)c1 + CC#N",
    "Measure Unit": "S/m",
    "Number": 0.401
  },
  {
    "Compound": "Cc1n(S(=O)(=O)O)cc[n+]1S(=O)(=O)O.O=C([O-])C(F)(F)F + CC#N",
    "Measure Unit": "S/m",
    "Number": 0.616
  },
  {
    "Compound": "CCc1n(S(=O)(=O)O)cc[n+]1S(=O)(=O)O.O=C([O-])C(F)(F)F + CC#N",
    "Measure Unit": "S/m",
    "Number": 0.652
  },
  {
    "Compound": "O=C([O-])C(F)(F)F.O=S(=O)(O)n1cc[n+](S(=O)(=O)O)c1 + CO",
    "Measure Unit": "S/m",
    "Number": 3.25
  }
]
